stated_conditions: human gut metagenome, 24 h, 2 µM; note: call rule not given here
test_readout: Bacterial Biotransformation

Some compounds with known Bacterial Biotransformation results, for comparison:
1) COc1ccc(CN2CCNCC2)c(OC)c1OC.Cl.Cl [TRIMETAZIDINE DIHYDROCHLORIDE]	Compound NOT metabolized
2) O=C(O)CCC(=O)O.O=C(O[C@H]1CN2CCC1CC2)N1CCc2ccccc2[C@@H]1c1ccccc1 [SOLIFENACIN SUCCINATE]	Compound NOT metabolized
3) Nc1nc(N)nc(-c2cc(Cl)ccc2Cl)n1.O=C(O)/C=C\C(=O)O [IRSOGLADINE MALEATE]	Compound NOT metabolized
4) CC(CCc1ccccc1)NCC(O)c1ccc(O)c(C(N)=O)c1 (centres undefined) [LABETALOL]	Compound NOT metabolized
5) CCCCCNC(=N)N/N=C/c1c[nH]c2ccc(OC)cc12.O=C(O)/C=C\C(=O)O [TEGASEROD MALEATE]	Compound metabolized
6) CCN(CC)C(=O)C1(c2ccccc2)CC1CN (centres undefined)	Compound NOT metabolized

Q. What does the record list as Bacterial Biotransformation for C[C@]12CCC(=O)C=C1[C@@H]1C[C@@H]1[C@H]1[C@@H]3[C@@H]4C[C@@H]4[C@@]4(CCC(=O)O4)[C@@]3(C)CC[C@@H]12 [DROSPIRENONE] ?
A. Compound metabolized

Q. What does the record list as Bacterial Biotransformation for CN(C/C=C/C#CC(C)(C)C)Cc1cccc2ccccc12 [TERBINAFINE] ?
A. Compound NOT metabolized

Q. What does the record list as Bacterial Biotransformation for O=C1CN2Cc3c(ccc(Cl)c3Cl)N=C2N1 [ANAGRELIDE] ?
A. Compound metabolized

====

assay_text: The drug is tested on Z-004 corresponding to metagenome with ENA study accession number: PRJEB37062 and ENA sample accession number: ERS12561804 for biotransformation under anaerobic condition. The drug concentrations were measured over 9 timepoints collected between 0 and 24 hours of incubation by liquid-chromatography-coupled mass spectrometry (LC–MS)
stated_conditions: 2 µM
test_readout: Bacterial Biotransformation

1. O=C(NC(Cc1cc(=O)[nH]c2ccccc12)C(=O)O)c1ccc(Cl)cc1 (stereo not drawn) [REBAMIPIDE]	Compound NOT metabolized
2. CCN(CC)CCNC(=O)c1ccc(NC(C)=O)cc1 [ACECAINIDE]	Compound NOT metabolized
3. COC(=O)[C@H](c1ccccc1Cl)N1CCc2sccc2C1.O=S(=O)(O)O [CLOPIDOGREL BISULFATE]	Compound metabolized
4. Br.COc1ccc2c(c1)[C@]13CCCC[C@@H]1[C@H](C2)N(C)CC3.O [DEXTROMETHORPHAN HYDROBROMIDE]	Compound metabolized
5. COc1cc(NC(C)CCCN)c2ncccc2c1.O=P(O)(O)O.O=P(O)(O)O (stereo not drawn) [PRIMAQUINE PHOSPHATE]	Compound NOT metabolized

Q. What does the record list as Bacterial Biotransformation for CC#C[C@]1(O)CC[C@H]2[C@@H]3CCC4=CC(=O)CCC4=C3[C@@H](c3ccc(N(C)C)cc3)C[C@@]21C ?
A. Compound NOT metabolized

Q. What does the record list as Bacterial Biotransformation for CC[C@H](C)C(=O)O[C@H]1CCC=C2C=C[C@H](C)[C@H](CC[C@@H]3C[C@@H](O)CC(=O)O3)[C@H]21 ?
A. Compound NOT metabolized

Q. What does the record list as Bacterial Biotransformation for CCN(CC)CCNC(=O)c1cc(S(C)(=O)=O)ccc1OC [TIAPRIDE] ?
A. Compound NOT metabolized
